tested on: NCI-H460; assay: NCI tumour cell line growth inhibition, 48 h
Active and inactive are the calls of the source. Rule as the data show it: active = GI50 up to about 1.1 µM and inactive = higher.
measurement_label: GI50

Task: # get_value(readout='GI50', item= O=C1OC(CCCN2CCCCC2)(c2ccccc2)CC12CCCC2 (centres undefined) )
Result: 89.1 µM (inactive)

Task: What do you get for C=C1CC[C@@]2(OC1)OC1C[C@H]3[C@@H]4CC=C5C[C@@H](O)CC(OC6OCC(OC(=O)[C@@H](O)[C@@H](C)CC)C(OC(C)=O)C6OC6OC(C)C(O)C(O)C6O)[C@]5(C)[C@H]4CC[C@]3(C)C1[C@@H]2C (some centres undefined) ?
Result: 1.72 µM (inactive)

Task: What do you get for COC(=O)/C=C/c1ccc2c(c1)[C@H](C(=O)OC)[C@@H](c1ccc(O)cc1)O2 ?
Result: 35.1 µM (inactive)

Task: What do you get for COC(=O)C12CCC(CC1=O)C2(C)C (centres undefined) ?
Result: > 100 µM (inactive)
